target: Neuronal calcium sensor-1 (NCS-1), N-terminal His tag removed with TEV protease (UniProt P62166 1-190); test: other fluorescence titration; intrinsic tryptophan fluorescence of 1 μM NCS-1 (excitation 280 nm, emission 290-410 nm), PQIQ peptide added stepwise; 50 mM Tris pH 7.5, 50 mM NaCl, 5 mM CaCl2; room temperature; logistic fit; triplicate; conditions: both partners purified
Sequence (P62166 whole entry): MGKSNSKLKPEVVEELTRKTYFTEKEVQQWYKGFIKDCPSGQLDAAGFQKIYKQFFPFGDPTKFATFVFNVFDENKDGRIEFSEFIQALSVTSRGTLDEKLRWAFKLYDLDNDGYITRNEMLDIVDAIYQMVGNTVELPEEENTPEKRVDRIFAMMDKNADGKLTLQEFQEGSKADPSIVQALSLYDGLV
pEC50: −log10 of the molar value.
QUANTITY_KIND: pEC50

BINDER: TVGKIYAAMMIMEYYRQSKAKKLQAMR [PQIQ peptide, synthetic P/Q peptide corresponding to residues 1903-1929 of the human P/Q receptor]
OBSERVED: 5.98
